// data source = paper PMC10375533

Biological target: T. thermophilus RfbF (Thermus thermophilus)
Test: Isothermal titration calorimetry (ITC) binding measurements with RfbF
Conditions: KD (beyond measurable limit), ITC, 5-10 mM ligand titrated into 110 µM RfbF
pKd: −log10 of the molar value.
measurement_kind: pKd

[in] Form field: reported pKd of `C[C@@H]1NC[C@H](O)[C@H](O)[C@H]1O`
[out] < 3.00

---

Target: T. thermophilus RfbF (Thermus thermophilus, UniProt Q72KB9)
Sequence (Q72KB9 entry or part of it): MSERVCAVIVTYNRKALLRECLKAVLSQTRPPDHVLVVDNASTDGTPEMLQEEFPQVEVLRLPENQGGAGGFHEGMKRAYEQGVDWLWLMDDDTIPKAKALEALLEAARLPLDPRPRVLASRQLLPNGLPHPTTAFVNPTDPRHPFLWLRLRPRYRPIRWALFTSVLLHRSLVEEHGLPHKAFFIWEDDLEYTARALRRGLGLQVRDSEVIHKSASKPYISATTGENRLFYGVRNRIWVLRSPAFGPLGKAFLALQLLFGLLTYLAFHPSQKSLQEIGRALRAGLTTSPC
Assay: Isothermal titration calorimetry (ITC) binding measurements with RfbF
Settings: ITC, 25 °C, ligand titrated into 110 µM RfbF

| compound | ΔG |
| --- | --- |
| Cc1cn(C2CC(O)C(COP(=O)(O)OP(=O)(O)OC3OC(C)C(O)C(O)C3O)O2)c(=O)[nH]c1=O [dTDP-β-L-6dTal, dTDP-6-deoxy-β-L-talose] | 0.415 (2.847) kcal/mol |
| Cc1cn(C2CC(O)C(COP(=O)(O)OP(=O)(O)OC3OC(C)C(O)C(O)C3O)O2)c(=O)[nH]c1=O [dTDP-α-L-Rha, dTDP-a-L-rhamnose] | N/B |
| Cc1cn(C2CC(O)C(COP(=O)(O)OP(=O)(O)OC3OC(C)C(O)C(O)C3O)O2)c(=O)[nH]c1=O [dTDP-β-L-Rha, reference compound] | -6.77 (.38) kcal/mol |

---

Target: T. thermophilus RfbF (Thermus thermophilus, UniProt Q72KB9)
Test: Isothermal titration calorimetry (ITC) binding measurements with RfbF
Conditions: ITC, 25 °C, ligand titrated into 110 µM RfbF, one-site model; spread = SD, triplicate; read-out: KD
measurement_kind: Kd

[in] For the compound Cc1cn(C2CC(O)C(COP(=O)(O)OP(=O)(O)OC3OC(C)C(O)C(O)C3O)O2)c(=O)[nH]c1=O [dTDP-β-L-Rha, reference compound] , what Kd is on record?
[out] ~8 µM

---

Molecular target: T. thermophilus RfbF (Thermus thermophilus, UniProt Q72KB9)
Test: Isothermal titration calorimetry (ITC) binding measurements with RfbF
Settings: ITC, 25 °C, ligand titrated into 110 µM RfbF
measurement_kind: ΔH

| molecule | target_system | result |
| --- | --- | --- |
| CC1OC(OP(=O)(O)OP(=O)(O)OCC2OC(n3ccc(=O)[nH]c3=O)C(O)C2O)C(O)C(O)C1O (stereo not drawn) | T. thermophilus RfbF (Thermus thermophilus, UniProt Q72KB9) | -6.72 (1.01) kcal/mol |
| Cc1cn(C2CC(O)C(COP(=O)(O)OP(=O)(O)OC3OC(C)C(O)C(O)C3O)O2)c(=O)[nH]c1=O [dTDP-α-L-Rha, dTDP-a-L-rhamnose] | T. thermophilus RfbF (Thermus thermophilus, UniProt Q72KB9) | N/B |
| CC(=O)NC1C(OP(=O)(O)OP(=O)(O)OCC2OC(n3ccc(=O)[nH]c3=O)C(O)C2O)OC(CO)C(O)C1O [UDP-α-D-GlcNAc, UDP-a-N-acetyl-D-glucosamine, reference compound] | T. thermophilus RfbF (Thermus thermophilus, UniProt Q72KB9) | N/B |
| CC1OC(OP(=O)(O)OP(=O)(O)OCC2OC(n3cnc4c(=O)[nH]c(N)nc43)C(O)C2O)C(O)C(O)C1O (stereo not drawn) | T. thermophilus RfbF (Thermus thermophilus, UniProt Q72KB9) | N/B |
| Cc1cn(C2CC(O)C(COP(=O)(O)OP(=O)(O)OC3OC(C)C(O)C(O)C3O)O2)c(=O)[nH]c1=O [dTDP-β-L-Rha, reference compound] | T. thermophilus RfbF (Thermus thermophilus, UniProt Q72KB9) | -8.68 (0.59) kcal/mol |

Query molecule follows.
[in] # query: ΔH of entry Cc1cn(C2CC(O)C(COP(=O)(O)OP(=O)(O)OC3OC(C)C(O)C(O)C3O)O2)c(=O)[nH]c1=O [dTDP-β-L-6dTal, dTDP-6-deoxy-β-L-talose]
[out] -8.17 (2.70) kcal/mol
